Target entity: HMGCR (Cricetulus griseus)
Construct: endogenous in cells; host or cells: CHO-7, CHG, SRD-13A, SRD-15
Protocol notes: Immunoblotting of endogenous HMGCR protein in CHO-7 (or CHG) cells
Assay type: cell-based, Chinese hamster
Recorded conditions: CHO-7 cells, statin 16 h, DMSO = 1
Protocol: CHO-7 (Chinese hamster ovary cell, a clone of CHO-K1 cell line selected for growth in LPDS) and Huh7 (a human hepatocellular carcinoma cell line), SRD-13A (a Scap-deficient CHO-7 cell line) and SRD-15 (an Insig-1 and Insig-2-deficient CHO-7 cell line) were generous gifts from Russell Debose-Boyd at UT Southwestern Medical Center, USA. All cells were grown in a monolayer at 37 °C with 5% CO2. Huh7 cells were maintained in medium A supplemented with 10% FBS. […]
Quantity name: increase of HMGCR protein (maximum increment)

Ask: Request the reported increase of HMGCR protein (maximum increment) associated with CC[C@H](C)C(=O)O[C@H]1C[C@H](O)C=C2C=C[C@H](C)[C@H](CC[C@@H](O)C[C@@H](O)CC(=O)O)[C@H]21
Result: ~12 fold

Ask: Quick one: CC[C@H](C)C(=O)O[C@H]1C[C@@H](C)C=C2C=C[C@H](C)[C@H](CC[C@@H]3C[C@@H](O)CC(=O)O3)[C@H]21
Result: ~ 15 fold

Ask: Quick one: CC(C)c1c(C(=O)Nc2ccccc2)c(-c2ccccc2)c(-c2ccc(F)cc2)n1CC[C@@H](O)C[C@@H](O)CC(=O)O
Result: ~9 fold

Ask: Quick one: CCC(C)(C)C(=O)O[C@H]1C[C@@H](C)C=C2C=C[C@H](C)[C@H](CC[C@@H]3C[C@@H](O)CC(=O)O3)[C@H]21
Result: ~ 15 fold

Ask: Quick one: CC(C)n1c(/C=C/C(O)CC(O)CC(=O)O)c(-c2ccc(F)cc2)c2ccccc21 (stereo not drawn)
Result: ~11 fold

Ask: Quick one: CC(C)c1nc(N(C)S(C)(=O)=O)nc(-c2ccc(F)cc2)c1/C=C/[C@@H](O)C[C@@H](O)CC(=O)O
Result: ~17 fold

###

Please provide measured remaining activity at 1 µM for the entries that follow.
Target entity: HMGCR (TM1-8)-GFP (Cricetulus griseus)
Sequence (P00347 1-346): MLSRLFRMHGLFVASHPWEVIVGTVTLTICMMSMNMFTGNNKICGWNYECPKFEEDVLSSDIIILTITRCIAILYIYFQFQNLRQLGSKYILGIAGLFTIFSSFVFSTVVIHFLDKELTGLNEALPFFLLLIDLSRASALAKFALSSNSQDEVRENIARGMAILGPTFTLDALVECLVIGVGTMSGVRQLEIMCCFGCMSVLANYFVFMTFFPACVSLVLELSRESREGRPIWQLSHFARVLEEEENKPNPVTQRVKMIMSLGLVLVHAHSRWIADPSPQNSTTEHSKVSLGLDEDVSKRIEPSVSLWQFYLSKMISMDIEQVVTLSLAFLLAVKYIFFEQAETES
Protocol notes: HMGCR (TM1-8)-GFP fluorescent assay (high-content imaging) in CHG cells
Recorded conditions: 16 h, read-out: HMGCR (TM1-8)-GFP fluorescent intensity, mean
// note: answer is a bare numeric in %

Ask: Hello, I am looking for reported remaining activity at 1 µM with HMGCR (TM1-8)-GFP (Cricetulus griseus) for CC(C)CCC[C@@H](C)[C@H]1CC[C@H]2[C@@H]3CC=C4C[C@@H](O)CC[C@]4(C)[C@H]3CC[C@]12C . Could you help?
Result: 77.2

Ask: Quick one: CC(=O)N[C@@H]1C=C2C(C)(C)[C@@H](O)CC[C@]2(C)C2CC[C@@]3(C)C(CC[C@@H]3[C@H](C)CCCC(C)C)C21 (some centres unmarked)
Result: 89.7

Ask: Quick one: COCCC1(CCOC)C2=CCC3C(CC[C@@]4(C)C3CC[C@@H]4[C@H](C)CCCC(C)C)[C@@]2(C)CC[C@@H]1O (some centres unmarked)
Result: 99.6

Ask: Quick one: CCC1(CC)C2=CCC3C(CC[C@@]4(C)C3CC[C@@H]4[C@H](C)CCCC(C)C)[C@@]2(C)CC[C@@H]1O (some centres unmarked)
Result: 82.7

Ask: Quick one: CC(C)CCC[C@@H](C)[C@H]1CCC2C3C(CC[C@@]21C)[C@@]1(C)CC[C@H](O)C(C)(C)C1=C[C@H]3O (some centres unmarked)
Result: 93.6

Ask: Quick one: CC(C)CCC[C@@H](C)[C@H]1CC[C@H]2[C@@H]3CC=C4C(C)(C)[C@@H](O)CC[C@]4(C)[C@H]3CC[C@]12C
Result: 83.5

Ask: Quick one: CC(C)CCC[C@@H](C)[C@H]1CCC2C3C(CC[C@@]21C)[C@@]1(C)CC[C@H](O)C(C)(C)C1=C[C@H]3N (some centres unmarked)
Result: 99.6

Ask: Quick one: CC(C)CCC[C@@H](C)[C@H]1CCC2C3CC=C4C5(CCCCC5)[C@@H](O)CC[C@]4(C)C3CC[C@@]21C (some centres unmarked)
Result: 92.7

Ask: Quick one: CCC1(CCOC)C2=CCC3C(CCC4(C)C(C(C)CCCC(C)C)CCC34)C2(C)CCC1O (centres unmarked)
Result: 100

Ask: Quick one: CC(C)CCC[C@@H](C)[C@H]1CCC2C3C(=NO)C=C4C(C)(C)[C@@H](O)CC[C@]4(C)C3CC[C@@]21C (some centres unmarked)
Result: 75.2

Ask: Quick one: CC(C)CCC[C@@H](C)[C@H]1CCC2C3C(CC[C@@]21C)[C@@]1(C)CC[C@H](O)C(C)(C)C1=C[C@H]3N=[N+]=[N-] (some centres unmarked)
Result: 103

Ask: Quick one: CC(C)CCC[C@@H](C)[C@H]1CCC2C3C(=O)C=C4C(C)(C)[C@@H](O)CC[C@]4(C)C3CC[C@@]21C (some centres unmarked)
Result: 94.4

Ask: Quick one: C=CCC1(CC=C)C2=CCC3C(CC[C@@]4(C)C3CC[C@@H]4[C@H](C)CCCC(C)C)[C@@]2(C)CC[C@@H]1O (some centres unmarked)
Result: 80.9

Ask: Quick one: CC(C)CCC[C@@H](C)[C@H]1CC[C@H]2[C@@H]3[C@@H](O)C=C4C(C)(C)[C@@H](O)CC[C@]4(C)[C@H]3CC[C@]12C [Compound 35, 4,4-Dimethyl 7β-hydroxyl cholesterol]
Result: 68.2
